- Species: Rattus norvegicus
- assay_notes: Open TG-GATES - Regimen: Single
- Format: toxicity, organism-based, Sprague-Dawley
- Parameters: regimen Single, gender Male, age 6 weeks
- assay_context: in vivo, po, 0 mg/kg, 24 h, tissue Plasma, route gavage, dose level Control
attribute_measured: LDH (IU/L)
Give bare numbers, in IU/L.

Solved cases (2 shown):
Oc1ncnc2[nH]ncc12 [ALLOPURINOL]
94
C[C@](N)(Cc1ccc(O)c(O)c1)C(=O)O [METHYLDOPA]
69.8

Record LDH per entry; entries follow.
1. CC(=N)S [THIOACETAMIDE]
2. CC(C)C(=O)Nc1ccc([N+](=O)[O-])c(C(F)(F)F)c1 [FLUTAMIDE]
3. CC(=O)Oc1cc(C(C)C)c(OCCN(C)C)cc1C [MOXISYLYTE]
4. C[C@]12CCC(=O)C=C1CC[C@@H]1[C@@H]2CC[C@@]2(C)[C@H]1CC[C@]2(C)O [METHYLTESTOSTERONE]

Response:
1. 87.2
2. 136.2
3. 251.4
4. 63.4

Record LDH per entry; entries follow.
1. CCc1oc2ccccc2c1C(=O)c1cc(I)c(O)c(I)c1 [BENZIODARONE]
2. Nc1nc(N)c2nc(-c3ccccc3)c(N)nc2n1
3. O=C(N[C@H](CO)[C@H](O)c1ccc([N+](=O)[O-])cc1)C(Cl)Cl [CHLORAMPHENICOL]
4. CC(C)(S)[C@@H](N)C(=O)O [PENICILLAMINE]

Response:
1: 76.2; 2: 72.4; 3: 88.8; 4: 80

Record LDH per entry; entries follow.
1. CCC(C)(C)C(=O)O[C@H]1C[C@@H](C)C=C2C=C[C@H](C)[C@H](CC[C@@H]3C[C@@H](O)CC(=O)O3)[C@H]21 [SIMVASTATIN]
2. CN1C(=O)OC(C)(C)C1=O [TRIMETHADIONE]
3. O=C(O)c1cccnc1 [NIACIN]
4. C#C[C@]1(O)CC[C@H]2[C@@H]3CCc4cc(O)ccc4[C@H]3CC[C@@]21C [ETHINYL ESTRADIOL]
5. CCN1CCCC1CNC(=O)c1cc(S(N)(=O)=O)ccc1OC (stereo unspecified) [SULPIRIDE]

Response:
1: 97.8; 2: 82; 3: 200; 4: 62.4; 5: 98.2

Request: Please look up its LDH: CCSCC[C@H](N)C(=O)O [ETHIONINE]
Response: 183.8

Data provenance: ChEMBL document CHEMBL3885861
